Where these numbers come from: patent US8513248B2

In this section we review reported IC50 values for a set of molecules.
targetOrTestSystem: human recombinant P2X7 receptors (Homo sapiens)
Construct: expressed in transfected cells
assayComment: Ethidium Accumulation Assay 1
Assay type: cell-based
experimentalParameters: HEK293 cells stably expressing human recombinant P2X7; 1 mM ATP; ethidium 100 μM; read-out: Assay 1 (antagonist pIC50 for blocking ATP responses, ethidium accumulation) (converted)
Procedure: Studies were performed using NaCl assay buffer of the following composition: 140 mM NaCl, 10 mM HEPES [4-(2-hydroxyethyl)-1-piperazine-1-ethanesulfonic acid], 5 mM N-methyl-D-glucamine, 5.6 mM KCl, 10 mM D-glucose, 0.5 mM CaCl2 (pH 7.4). Human Embryonic Kidney (HEK) 293 cells, stably expressing human recombinant P2X7 receptors, were grown in poly-D-lysine pretreated 96 well plates for 18-24 hours. […]

Example results:
O=C(c1cccc(C(F)(F)F)c1Cl)N1CCn2c(I)cnc2C1	< 10 nM
O=C(c1cccc(C(F)(F)F)c1Cl)N1CCn2c(nc(Cl)c2Cl)C1	< 10 nM
O=C(c1cccc(C(F)(F)F)c1Cl)N1CCn2c(-c3nccs3)cnc2C1	< 10 nM
Cc1cn2c(n1)CN(C(=O)c1cccc(C(F)(F)F)c1Cl)CC2	< 501 nM
O=C(c1cccc(C(F)(F)F)c1Cl)N1CCn2c(Cl)cnc2C1	< 100 nM

Value wanted: IC50 (human recombinant P2X7 receptors (Homo sapiens)) of entry `O=C(c1cccc(C(F)(F)F)c1Cl)N1CCn2c(-c3cnccn3)cnc2C1`
< 10 nM

###

targetOrTestSystem: human recombinant P2X7 receptors (Homo sapiens, UniProt Q99572)
Construct: expressed in transfected cells
Sequence (Q99572 whole entry): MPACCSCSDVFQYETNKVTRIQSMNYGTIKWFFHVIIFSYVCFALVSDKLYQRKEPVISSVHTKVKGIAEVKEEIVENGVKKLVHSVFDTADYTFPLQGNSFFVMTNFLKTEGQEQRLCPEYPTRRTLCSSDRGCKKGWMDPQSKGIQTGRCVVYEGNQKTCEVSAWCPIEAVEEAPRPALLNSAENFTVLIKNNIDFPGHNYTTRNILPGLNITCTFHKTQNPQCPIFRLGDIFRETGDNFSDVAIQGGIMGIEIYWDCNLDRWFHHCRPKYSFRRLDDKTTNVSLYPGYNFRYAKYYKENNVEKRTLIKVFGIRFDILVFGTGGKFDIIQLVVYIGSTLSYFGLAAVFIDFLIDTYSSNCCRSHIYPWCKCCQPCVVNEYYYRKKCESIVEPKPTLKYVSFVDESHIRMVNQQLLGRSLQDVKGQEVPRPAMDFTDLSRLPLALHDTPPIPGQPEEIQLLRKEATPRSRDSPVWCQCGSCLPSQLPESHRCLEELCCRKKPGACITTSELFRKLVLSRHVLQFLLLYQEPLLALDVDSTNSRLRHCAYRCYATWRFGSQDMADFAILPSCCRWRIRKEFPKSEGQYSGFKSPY
assayComment: Ethidium Accumulation Assay 1
Type: cell-based
experimentalParameters: HEK293 cells stably expressing human recombinant P2X7; 1 mM ATP; ethidium 100 μM; read-out: Assay 1 (antagonist pIC50 for blocking ATP responses, ethidium accumulation) (converted)
Counter-ions that a name gives are not always drawn.
measurementName: IC50

O=C(c1c(Cl)cc(Cl)cc1Cl)N1CCn2c(-c3ccccc3)cnc2C1 [Example 17, hydrochloride]	< 100 nM
O=C(c1cccc(C(F)(F)F)c1Cl)N1CCn2c(Br)cnc2C1 [Example 18, hydrochloride]	< 10 nM
CCc1cn2c(n1)CN(C(=O)c1ccc(Cl)cc1Cl)CC2	< 1000 nM

Which IC50 is reported for this compound? `O=C(c1cccc(C(F)(F)F)c1Cl)N1CCn2c(-c3ncccn3)cnc2C1`
< 10 nM

Follow-up entry: `O=C(c1ccc(F)cc1Cl)N1CCn2c(nc(C(F)(F)F)c2Br)C1`
< 100 nM

Follow-up entry: `O=C(c1ccc(F)cc1Cl)N1CCn2c(Br)cnc2C1`
< 501 nM

Follow-up entry: Cc1ccccc1-c1cnc2n1CCN(C(=O)c1cccc(C(F)(F)F)c1Cl)C2 [Example 28, hydrochloride]
< 100 nM

Follow-up entry: `O=C(c1cccc(C(F)(F)F)c1Cl)N1CCn2c(nc(Br)c2-c2ccc(F)cc2)C1`
< 100 nM

Follow-up entry: `O=C(c1cccc(C(F)(F)F)c1Cl)N1CCn2c(-c3ccccn3)cnc2C1`
< 10 nM

Follow-up entry: `O=C(c1cccc(C(F)(F)F)c1Cl)N1CCn2cc(C(F)(F)F)nc2C1`
< 100 nM

Follow-up entry: `O=C(c1ccc(Cl)cc1Cl)N1CCn2c(nc(C(F)(F)F)c2-c2ccc(F)cc2)C1`
< 501 nM

Follow-up entry: O=C(c1ccc(F)cc1Cl)N1CCn2c(-c3ccccc3)cnc2C1 [Example 10, hydrochloride]
< 100 nM

Follow-up entry: `O=C(c1cccc(C(F)(F)F)c1Cl)N1CCn2c(nc(C(F)(F)F)c2-c2ccccc2)C1`
< 100 nM
